- Tested on: A549
- experimental_protocol: NCI tumour cell line growth inhibition, 48 h
Calls of active or inactive are those of the source. Rule as the data show it: active = GI50 up to about 1.1 µM and inactive = higher.
Some compounds, each annotated with its measured GI50.
measured_parameter: GI50

COC(CC1(/C=C/O[Si](C(C)C)(C(C)C)C(C)C)C(=O)N(C)c2ccccc21)OC (stereo unspecified) | 45.2 µM (inactive)
N#C/C(=C\c1c(Cl)cccc1Cl)c1ccccc1 | 7.8 µM (inactive)
CC(CCC(=O)O)c1ccc(Br)cc1 (stereo unspecified) | > 100 µM (inactive)
COC[C@@H](Cc1ccc(OC)c(OC)c1)[C@@H](COC)Cc1ccc(OC)c(OC)c1 | > 100 µM (inactive)
Cc1ccc(/C=N/NS(=O)(=O)c2ccc(/C=C3\NC(=O)NC3=O)cc2)cc1 | > 100 µM (inactive)
CCCC/C=C/C1Cc2ccccc2CN1S(=O)(=O)c1ccc(C)cc1 (stereo unspecified) | 5.33 µM (inactive)
Nc1ncc2c(n1)-c1ccccc1OC2N1CCCC1 (stereo unspecified) | > 100 µM (inactive)
CCOC(=O)c1c(-c2ccccc2)nc2c(OC)nccn12 | > 100 µM (inactive)
CC(=O)Oc1ccc2c(=O)c(C(C)=O)coc2c1 | > 100 µM (inactive)
Nc1nc(Nc2cc(F)c(Cl)c(F)c2)cc(=O)[nH]1 | 76.4 µM (inactive)
O=C(O)c1cnc2[nH]ccn2c1=O | > 100 µM (inactive)
